Reference for the values: patent US20260242478A1

Would you kindly list Phage binding ELISA signal, Anti-PSMA Fab in presence of PSMA antigen for each of these binders?
Assay system: T1, PSMA Fab (006 PSMA Fab)
T1 construct: also called Anti-PSMA Fab; anti-PSMA Fab
Protocol details: clonal phage ELISA; biotinylated PSMA Fab on neutravidin plate, wells pre-incubated with PSMA antigen (competitor), anti-M13-HRP detection
Where no end group is shown, it is not given here.

These solved cases illustrate the format of a correct answer.
EWKWCTPPWMCTTN [Phage-2724] | 0.0835
WENWCRPSWMCEDT (cysteine pairing not given here; also: displayed on bacteriophage as fusion to pIII, linker not given here) [Phage-2712] | 0.0568
SVKWCTPPWMCTGL (cysteine pairing not given here; also: displayed on bacteriophage as fusion to pIII, linker not given here) [Phage-2710] | 0.0767

Request: Give the reported value of Phage binding ELISA signal, Anti-PSMA Fab in presence of PSMA antigen for this record: NTHWCTPSWMCSAW (cysteine pairing not given here; also: displayed on bacteriophage as fusion to pIII, linker not given here) [Phage-2713]
Response: 0.0816
